molecular target: human adenosine A2A receptor (A2aR) (human, UniProt P29274 1-412); experiment: cell-based or functional assay
Sequence (P29274 whole entry): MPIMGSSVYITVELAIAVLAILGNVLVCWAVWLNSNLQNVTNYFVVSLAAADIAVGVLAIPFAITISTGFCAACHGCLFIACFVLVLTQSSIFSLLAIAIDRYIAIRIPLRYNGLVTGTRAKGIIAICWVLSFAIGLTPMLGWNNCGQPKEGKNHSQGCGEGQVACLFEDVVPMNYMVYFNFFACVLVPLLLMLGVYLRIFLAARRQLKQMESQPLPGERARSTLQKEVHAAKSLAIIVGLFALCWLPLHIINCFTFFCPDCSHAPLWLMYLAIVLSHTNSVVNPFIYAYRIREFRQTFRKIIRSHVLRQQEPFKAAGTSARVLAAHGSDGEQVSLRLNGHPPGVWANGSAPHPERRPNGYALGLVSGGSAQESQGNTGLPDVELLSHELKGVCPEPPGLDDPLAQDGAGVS
Quick reference: IC50 of blocking activity, cAMP-Glo, 300 nM NECA, HEK293-hA2aR cells, supernatant of the listed items.
Give just the number in nM; leave the unit off.

Past entries and their recorded results:
Task item: Which IC50 of blocking activity, cAMP-Glo, 300 nM NECA, HEK293-hA2aR cells, supernatant is reported for this binder? Hu3F8-H5/Hu3F8-L4 (antibody, human IgG1, V domains shown, Human IgG1 FES (L234F, L235E, P331S) and human Ig kappa constant domains) VH: EVQLVQSGAEVKKPGASVKVSCKASGFTFTRYWMNWVRQAPGQGLEWIGRIDPSDSETHYNAKFWGRATLTVDKSTSTVYMELSSLRSEDTAVYYCLRSLYGKGDYWGQGTTVTVSS VL: DIVMTQSPLSLPVTPGEPASISCRSSQSIVHSNGNTYLEWYLQKPGQSPQLLIYKVSNRFSGVPDRFSGSGSGTDFTLKISRVEAEDVGVYYCYQGSHVPLTFGGGTKVEIK
Reply: 2.2

Task item: Endpoint output: IC50 of blocking activity, cAMP-Glo, 300 nM NECA, HEK293-hA2aR cells, supernatant of Hu3F8-H4/Hu3F8-L4 (antibody, human IgG1, V domains shown, Human IgG1 FES (L234F, L235E, P331S) and human Ig kappa constant domains; also called Hu3F8 VH4/VL4) VH: EVQLVQSGAEVKKPGASVKVSCKASGFTFTRYWMNWVRQAPGQGLEWIGRIDPSDSETHYNHKFWGRATLTVDKSTSTVYMELSSLRSEDTAVYYCLRSLYGKGDYWGQGTTVTVSS VL: DIVMTQSPLSLPVTPGEPASISCRSSQSIVHSNGNTYLEWYLQKPGQSPQLLIYKVSNRFSGVPDRFSGSGSGTDFTLKISRVEAEDVGVYYCYQGSHVPLTFGGGTKVEIK . Value?
Reply: 1

Then there is this binder:
Task item: Value lookup for IC50 of blocking activity, cAMP-Glo, 300 nM NECA, HEK293-hA2aR cells, supernatant; key = Hu3F8-H3/Hu3F8-L3 (antibody, human IgG1, V domains shown, Human IgG1 FES (L234F, L235E, P331S) and human Ig kappa constant domains; also called Hu3F8 VH3/VL3) VH: EVQLVQSGAEVKKPGASVKVSCKASGFTFTRYWMNWVRQAPGQGLEWIGRIDPSDSETHYNHKFWGRATLTVDTSTSTVYMELSSLRSEDTAVYYCLRSLYGKGDYWGQGTTVTVSS VL: DVVMTQSPLSLPVTLGQPASISCRSSQSIVHSNGNTYLEWYQQRPGQSPRLLIYKVSNRFSGVPDRFSGSGSGTDFTLKISRVEAEDVGVYYCYQGSHVPLTFGGGTKVEIK
Reply: 1.1

Provenance of the data: patent US20250206828A1
